molecular target: 5HT2C (Homo sapiens, UniProt P28335)
Sequence (P28335 33-458, species assumed): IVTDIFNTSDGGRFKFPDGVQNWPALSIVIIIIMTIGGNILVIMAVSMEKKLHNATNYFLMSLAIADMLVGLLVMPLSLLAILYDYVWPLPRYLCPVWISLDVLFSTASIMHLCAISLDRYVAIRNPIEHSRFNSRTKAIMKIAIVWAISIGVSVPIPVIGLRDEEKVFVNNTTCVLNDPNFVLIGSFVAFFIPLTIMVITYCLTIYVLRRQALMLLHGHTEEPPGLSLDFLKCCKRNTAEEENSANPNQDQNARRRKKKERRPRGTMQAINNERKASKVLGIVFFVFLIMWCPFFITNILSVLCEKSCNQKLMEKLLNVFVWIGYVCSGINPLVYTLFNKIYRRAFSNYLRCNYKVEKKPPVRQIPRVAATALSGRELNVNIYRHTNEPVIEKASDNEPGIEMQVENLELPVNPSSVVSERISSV
READOUT_NAME: pKi
Quick note: pKi means taking -log10 of the concentration in moles per liter.

**Query** Find pKi (5HT2C (Homo sapiens, UniProt P28335)) for the entry CCCCCCOc1nsnc1C1=CCCN(C)C1 [Xanomeline]
**Result** 6.92

* * *

target: muscarinic cholinergic receptors; test: 3H-oxotremorine-M binding study; conditions: inhibition of binding of 3H-oxotremorine-M; read-out: inhibition costant (Ki)
READOUT_NAME: Ki (nM)
The response must be a number in nM with no trailing unit.

**Query** For CCCCCCOc1nsnc1C1=CCCN(C)C1 , what is its reported Ki?
**Result** 2
